TEST READOUT: melting point

Query string: Complete the entry with melting point for `OCc1ccc(-c2cccnc2)cc1`
Result string: 106 to 107 °C

Query string: Complete the entry with melting point for `CC(=O)Nc1ccc(N=Nc2ccc(N=Nc3ccc(/N=N/c4ccc(NC(C)=O)cc4)cc3)cc2)cc1`
Result string: 245 to 248 °C

Others:
Query string: Complete the entry with melting point for `O=C1CC[C@@H](CO)N1`
Result string: 78 to 86 °C

Query string: Complete the entry with melting point for CCCCCCCCCCCCC(Oc1ccc([N+](=O)[O-])cc1)C(=O)NN (configuration not stated)
Result string: 127 °C

Query string: Complete the entry with melting point for `CCCCc1ccc(NC(=O)c2ccc(OC)cc2)cc1`
Result string: 146 to 148 °C

Query string: Complete the entry with melting point for `Cc1ccc(C=CC(=O)c2cccc([N+](=O)[O-])c2)cc1`
Result string: 143 to 146 °C

Query string: Complete the entry with melting point for CNC(c1ccccc1)C(NC)c1ccccc1 (configuration not stated)
Result string: 48 to 51 °C
